- assay system: Human CB2R (Cannabinoid receptor 2) (Homo sapiens, UniProt P34972)
- Sequence (P34972 whole entry): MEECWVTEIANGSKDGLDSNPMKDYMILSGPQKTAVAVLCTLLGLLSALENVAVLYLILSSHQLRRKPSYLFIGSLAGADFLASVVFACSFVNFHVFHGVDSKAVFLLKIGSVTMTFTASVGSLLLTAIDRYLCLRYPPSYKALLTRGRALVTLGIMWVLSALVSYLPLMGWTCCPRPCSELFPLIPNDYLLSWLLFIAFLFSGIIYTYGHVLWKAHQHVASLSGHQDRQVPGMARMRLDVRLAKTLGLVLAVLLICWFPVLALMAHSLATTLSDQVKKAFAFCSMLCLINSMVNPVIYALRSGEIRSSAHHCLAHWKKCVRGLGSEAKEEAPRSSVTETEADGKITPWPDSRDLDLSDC
- measurement description: CB-2 in vitro cAMP (HTRF) assay
- details: HEK cells, cAMP HTRF, 250 nM forskolin; mean where tested more than once; read-out: CB2 HEK_cAMP EC50
// EC50 lookup, one value per entry
recorded endpoint: EC50

[[record]]
compound = "O=C(O)c1ccnc(CN2CCC(n3c(C4CC4)nc4ccc(C(c5ccc(Cl)cc5)c5ccc(Cl)cc5)cc43)CC2)c1"
assay_system = "Human CB2R (Cannabinoid receptor 2) (Homo sapiens, UniProt P34972)"
recorded_endpoint = "EC50"
result = "> 10 µM"

[[record]]
compound = "CCc1nc2ccc(C(c3ccc(Cl)cc3)c3nccs3)cc2n1CCc1cccc(Cl)c1 (stereo not shown)"
assay_system = "Human CB2R (Cannabinoid receptor 2) (Homo sapiens, UniProt P34972)"
recorded_endpoint = "EC50"
result = "> 10 µM"

[[record]]
compound = "O=C(O)CS(=O)(=O)N1CCC(n2c(C3CC3)nc3ccc(C(c4ccc(Cl)cc4)c4ccc(Cl)cc4)cc32)CC1"
assay_system = "Human CB2R (Cannabinoid receptor 2) (Homo sapiens, UniProt P34972)"
recorded_endpoint = "EC50"
result = "> 10 µM"

[[record]]
compound = "O=S(=O)(N1CCC(n2c(-c3cccnc3)nc3ccc(C(c4ccc(Cl)cc4)c4nccs4)cc32)CC1)C(F)(F)F (stereo not shown)"
assay_system = "Human CB2R (Cannabinoid receptor 2) (Homo sapiens, UniProt P34972)"
recorded_endpoint = "EC50"
result = "0.063 µM"


* * *

// pEC50 lookup, one value per entry
- assay system: Human CB1R (Cannabinoid receptor 1) (Homo sapiens, UniProt P21554)
- Sequence (P21554 whole entry): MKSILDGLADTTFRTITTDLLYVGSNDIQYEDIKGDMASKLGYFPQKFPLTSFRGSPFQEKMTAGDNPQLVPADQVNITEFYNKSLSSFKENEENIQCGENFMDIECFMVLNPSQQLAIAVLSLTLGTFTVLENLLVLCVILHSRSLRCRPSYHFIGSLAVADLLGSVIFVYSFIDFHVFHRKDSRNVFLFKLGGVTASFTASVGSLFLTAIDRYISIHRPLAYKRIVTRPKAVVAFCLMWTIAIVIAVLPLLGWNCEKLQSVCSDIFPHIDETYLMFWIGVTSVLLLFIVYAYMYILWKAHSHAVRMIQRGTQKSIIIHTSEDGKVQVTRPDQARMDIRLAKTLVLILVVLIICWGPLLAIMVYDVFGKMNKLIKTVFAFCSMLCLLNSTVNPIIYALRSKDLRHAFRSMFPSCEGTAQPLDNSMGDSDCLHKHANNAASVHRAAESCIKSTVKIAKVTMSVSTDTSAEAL
- measurement description: CB-1 in vitro cAMP (HTRF) assay
- Format: cell-based
- details: HEK cells, cAMP HTRF, 250 nM forskolin; mean where tested more than once; read-out: CB1 HEK_cAMP EC50
pEC50: −log10 of the molar value.
recorded endpoint: pEC50

[[record]]
compound = "O=C(O)c1ccc(S(=O)(=O)N2CCC(n3c(C4CC4)nc4ccc(C(CO)(c5ccc(Cl)cc5)c5ccc(Cl)cc5)cc43)CC2)cc1 [Example 228]"
recorded_number = 5.08

[[record]]
compound = "CCOC(=O)N1CCC(n2c(C3CN(C(=O)OC(C)(C)C)C3)nc3ccc(C(c4ccc(Cl)cc4)c4nccs4)cc32)CC1 (centres unmarked) [Example 417]"
recorded_number = 5.60

[[record]]
compound = "O=C(O)c1cccc(CN2CCC(n3c(C4CC4)nc4ccc(C(c5ccc(Cl)cc5)c5ccc(Cl)cc5)cc43)CC2)c1F [Example 85]"
recorded_number = 7.76

[[record]]
compound = "NC(=O)c1ccc(S(=O)(=O)N2CCC(n3c(C4CC4)nc4ccc(C(c5ccc(Cl)cc5)c5ccc(Cl)cc5)cc43)CC2)o1 [Example 224]"
recorded_number = 8.22

[[record]]
compound = "O=S(=O)(N1CCC(n2c(C3CCCO3)nc3ccc(C(O)(c4ccc(Cl)cc4)c4ccc(Cl)cc4)cc32)CC1)C(F)(F)F (centres unmarked) [Example 285]"
recorded_number = 8.47


* * *

- assay system: Human CB2R (Cannabinoid receptor 2) (Homo sapiens)
- measurement description: CB-2 in vitro cAMP (HTRF) assay
- details: HEK cells, cAMP HTRF, 250 nM forskolin; mean where tested more than once; read-out: CB2 HEK_cAMP EC50
pEC50: −log10 of the molar value.
recorded endpoint: pEC50

[[record]]
compound = "O=C(O)c1cc(CN2CCC(n3c(C4CC4)nc4ccc(C(c5ccc(Cl)cc5)c5ccc(Cl)cc5)cc43)CC2)ccc1F [Example 95]"
relation_sign = "<"
recorded_number = 5.00

[[record]]
compound = "O=C(O)c1cccc(-c2cccc(CCn3c(C4CC4)nc4ccc(C(c5ccc(Cl)cc5)c5ccc(Cl)cc5)cc43)c2)c1 [Example 11]"
relation_sign = "="
recorded_number = 5.30

[[record]]
compound = "O=C(O)c1csc(CN2CCC(n3c(C4CC4)nc4ccc(C(c5ccc(Cl)cc5)c5ccc(Cl)cc5)cc43)CC2)c1 [Example 130]"
relation_sign = "="
recorded_number = 5.09


* * *

// EC50 lookup, one value per entry
- assay system: Human CB2R (Cannabinoid receptor 2) (Homo sapiens, UniProt P34972)
- measurement description: CB-2 in vitro cAMP (HTRF) assay
- details: HEK cells, cAMP HTRF, 250 nM forskolin; mean where tested more than once; read-out: CB2 HEK_cAMP EC50
recorded endpoint: EC50

[[record]]
compound = "NC(=O)c1cccc(S(=O)(=O)N2CCC(n3c(C4CC4)nc4ccc(C(c5ccc(Cl)cc5)c5ccc(Cl)cc5)cc43)CC2)c1 [Example 260]"
result = "> 10 µM"

[[record]]
compound = "O=S(=O)(c1ccc(CO)o1)N1CCC(n2c(C3CC3)nc3ccc(C(c4ccc(Cl)cc4)c4ccc(Cl)cc4)cc32)CC1 [Example 55]"
result = "2.74 µM"

[[record]]
compound = "O=S(=O)(N1CCC(n2c(C3COC3)nc3ccc(C(O)(c4ccc(Cl)cc4)c4ccc(Cl)cc4)cc32)CC1)C(F)(F)F [Example 255]"
result = "> 10 µM"

[[record]]
compound = "O=C(NCCO)c1ccc(S(=O)(=O)N2CCC(n3c(C4CC4)nc4ccc(C(c5ccc(Cl)cc5)c5ccc(Cl)cc5)cc43)CC2)cn1 [Example 204]"
result = "> 10 µM"

[[record]]
compound = "COc1ccc(S(=O)(=O)N2CCC(n3c(C4CC4)nc4ccc(C(c5ccc(Cl)cc5)c5ccc(Cl)cc5)cc43)CC2)cc1C(N)=O [Example 187]"
result = "> 10 µM"

[[record]]
compound = "O=C(O)c1ccc(S(=O)(=O)N2CCC(n3c(C4CC4)nc4ccc(C(c5ccc(Cl)cc5)c5ccc(Cl)cc5)cc43)CC2)cc1 [Example 276]"
result = "2.61 µM"


* * *

// pEC50 lookup, one value per entry
- assay system: Human CB1R (Cannabinoid receptor 1) (Homo sapiens)
- measurement description: CB-1 in vitro cAMP (HTRF) assay
- Assay type: cell-based
- details: HEK cells, cAMP HTRF, 250 nM forskolin; mean where tested more than once; read-out: CB1 HEK_cAMP EC50
pEC50: −log10 of the molar value.
recorded endpoint: pEC50

[[record]]
compound = "CCc1nc2ccc(C(c3ccc(Cl)cc3)c3ccc(Cl)cc3)cc2n1CC1CCN(S(=O)(=O)C(F)(F)F)CC1"
recorded_endpoint = "pEC50"
recorded_number = 8.28

[[record]]
compound = "CCOC(=O)N1CCC(n2c(C3CNC3)nc3ccc(C(c4ccc(Cl)cc4)c4nccs4)cc32)CC1 (stereo not shown)"
recorded_endpoint = "pEC50"
recorded_number = 5.83

[[record]]
compound = "O=C(Oc1ccccc1)N1CCC(n2c(C3CC3)nc3ccc(C(c4ccc(Cl)cc4)c4ccc(Cl)cc4)cc32)CC1"
recorded_endpoint = "pEC50"
recorded_number = 7.72

[[record]]
compound = "O=C(O)c1ccc(-c2ccc(CCn3c(C4CC4)nc4ccc(C(c5ccc(Cl)cc5)c5ccc(Cl)cc5)cc43)cc2)cc1"
recorded_endpoint = "pEC50"
recorded_number = 5.78

[[record]]
compound = "COC(=O)c1ccc(OCCn2c(C3CC3)nc3ccc(C(c4ccc(Cl)cc4)c4ccc(Cl)cc4)cc32)nc1"
recorded_endpoint = "pEC50"
recorded_number = 7.43

[[record]]
compound = "FC(F)(F)c1ccc(CCn2c(C3CC3)nc3ccc(C(c4ccc(Cl)cc4)c4ccc(Cl)cc4)cc32)cc1"
recorded_endpoint = "pEC50"
recorded_number = 8.47

[[record]]
compound = "COc1ccc(S(=O)(=O)N2CCC(n3c(C4CC4)nc4ccc(C(c5ccc(Cl)cc5)c5ccc(Cl)cc5)cc43)CC2)cc1F"
recorded_endpoint = "pEC50"
recorded_number = 7.38


* * *

- assay system: UniProt:P34972
- measurement description: CB-2 in vitro cAMP (HTRF) assay
- details: HEK cells, cAMP HTRF, 250 nM forskolin; mean where tested more than once; read-out: CB2 HEK_cAMP EC50
recorded endpoint: EC50

[[record]]
molecule = "O=S(=O)(N1CCC(n2c(-c3ccncc3)nc3ccc(C(c4ccc(Cl)cc4)c4nccs4)cc32)CC1)C(F)(F)F (centres unmarked)"
recorded_endpoint = "EC50"
result = "> 10 µM"

[[record]]
molecule = "CCCc1nc2ccc(C(c3ccc(Cl)cc3)c3nccs3)cc2n1C1CCN(S(=O)(=O)C(F)(F)F)CC1 (centres unmarked)"
recorded_endpoint = "EC50"
result = "> 10 µM"

[[record]]
molecule = "COC(=O)c1cccc(-n2c(C3CC3)nc3ccc(C(c4ccc(Cl)cc4)c4ccc(Cl)cc4)cc32)c1"
recorded_endpoint = "EC50"
result = "> 10 µM"

[[record]]
molecule = "COc1cc(S(=O)(=O)N2CCC(n3c(C4CC4)nc4ccc(C(CO)(c5ccc(Cl)cc5)c5ccc(Cl)cc5)cc43)CC2)ccc1C(N)=O"
recorded_endpoint = "EC50"
result = "> 10 µM"

[[record]]
molecule = "CCOC(=O)N1CCC(n2c(C3CCOCC3)nc3ccc(C(c4ccc(Cl)cc4)c4nccs4)cc32)CC1 (centres unmarked)"
recorded_endpoint = "EC50"
result = "> 10 µM"

[[record]]
molecule = "O=C(c1nc[nH]n1)N1CCC(n2c(C3CC3)nc3ccc(C(c4ccc(Cl)cc4)c4ccc(Cl)cc4)cc32)CC1"
recorded_endpoint = "EC50"
result = "0.99 µM"

[[record]]
molecule = "NC(=O)CS(=O)(=O)N1CCC(n2c(C3CC3)nc3ccc(C(c4ccc(Cl)cc4)c4ccc(Cl)cc4)cc32)CC1"
recorded_endpoint = "EC50"
result = "> 10 µM"

[[record]]
molecule = "Clc1ccc(C(c2ccc(Cl)cc2)c2ccc3ncn(C4Cc5ccccc5C4)c3c2)cc1"
recorded_endpoint = "EC50"
result = "9 µM"

[[record]]
molecule = "O=C(O)c1ccc(S(=O)(=O)N2CCC(n3c(C4CC4)nc4ccc(C(CO)(c5ccc(Cl)cc5)c5ccc(Cl)cc5)cc43)CC2)cc1"
recorded_endpoint = "EC50"
result = "> 10 µM"

[[record]]
molecule = "NC(=O)c1cccc(N2CCC(n3c(C4CC4)nc4ccc(C(c5ccc(Cl)cc5)c5ccc(Cl)cc5)cc43)CC2)c1"
recorded_endpoint = "EC50"
result = "4.49 µM"

[[record]]
molecule = "O=S(=O)(c1ccccc1C(F)(F)F)N1CCC(n2c(C3CC3)nc3ccc(C(c4ccc(Cl)cc4)c4ccc(Cl)cc4)cc32)CC1"
recorded_endpoint = "EC50"
result = "> 10 µM"

[[record]]
molecule = "CCOC(=O)N1CCC(n2c(-c3nccs3)nc3ccc(C(c4ccc(Cl)cc4)c4nccs4)cc32)CC1 (centres unmarked)"
recorded_endpoint = "EC50"
result = "> 10 µM"

[[record]]
molecule = "NC(=O)c1cc(S(=O)(=O)N2CCC(n3c(C4CC4)nc4ccc(C(c5ccc(Cl)cc5)c5ccc(Cl)cc5)cc43)CC2)ccc1F"
recorded_endpoint = "EC50"
result = "> 10 µM"

[[record]]
molecule = "O=C(CO)N1CCC(n2c(C3CC3)nc3ccc(C(c4ccc(Cl)cc4)c4ccc(Cl)cc4)cc32)CC1"
recorded_endpoint = "EC50"
result = "2.1 µM"

